assay: Plasma pharmacokinetics of raltitrexed (radioimmunoassay); format: in vivo; settings: human, intravenous, dose level III (irinotecan 250, raltitrexed 2.6 mg m-2), cycle 1, n=3
parameterMeasured: AUC (ng·h/mL)
Use ng·h/mL as the unit, but write only the number.

For `Cc1nc2ccc(CN(C)c3ccc(C(=O)N[C@@H](CCC(=O)O)C(=O)O)s3)cc2c(=O)[nH]1` , what is its reported AUC?
1460

====

experiment: Plasma pharmacokinetics of raltitrexed (radioimmunoassay); format: in vivo; conditions: human, intravenous, dose level I (irinotecan 175, raltitrexed 2.6 mg m-2), cycle 1, n=3, read-out: Raltitrexed Cl (converted)
parameterMeasured: clearance

For `Cc1nc2ccc(CN(C)c3ccc(C(=O)N[C@@H](CCC(=O)O)C(=O)O)s3)cc2c(=O)[nH]1` , what is its reported clearance?
50.2 mL/min

Origin of the recorded values: paper PMC2363476
